Measured % of WT binding accompanies every entry in the list below.
- Subject Of Test: Full length LIGHT W198A on HEK293FF cells (Homo sapiens (Human), UniProt O43557 1-240)
- Sequence (O43557 whole entry W198A): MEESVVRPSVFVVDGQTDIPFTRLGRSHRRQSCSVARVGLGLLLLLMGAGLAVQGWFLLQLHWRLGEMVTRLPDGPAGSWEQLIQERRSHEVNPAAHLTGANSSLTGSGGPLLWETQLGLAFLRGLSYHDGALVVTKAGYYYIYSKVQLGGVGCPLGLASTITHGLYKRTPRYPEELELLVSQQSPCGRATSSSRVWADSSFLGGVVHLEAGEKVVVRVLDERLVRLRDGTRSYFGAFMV
- Assay Comment: flow cytometry, HEK293FF, mAb at EC50

binder="3D12 chimeric IgG4 mAb (antibody, V domains shown, Chimeric human IgG4 (S-to-P, L-to-E) with human CL, as m1; also called Parental 3D12; 03D12) VH: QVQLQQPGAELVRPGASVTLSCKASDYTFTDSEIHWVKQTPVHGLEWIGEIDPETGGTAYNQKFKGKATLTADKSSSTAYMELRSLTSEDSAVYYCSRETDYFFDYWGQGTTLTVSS VL: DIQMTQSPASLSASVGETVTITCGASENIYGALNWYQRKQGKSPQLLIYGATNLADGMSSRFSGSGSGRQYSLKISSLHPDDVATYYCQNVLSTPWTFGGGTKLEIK" result=83%
binder="2E08 chimeric IgG4 mAb (antibody, V domains shown, Chimeric human IgG4 (S-to-P, L-to-E) with human CL, as m1; also called Parental 2E08) VH: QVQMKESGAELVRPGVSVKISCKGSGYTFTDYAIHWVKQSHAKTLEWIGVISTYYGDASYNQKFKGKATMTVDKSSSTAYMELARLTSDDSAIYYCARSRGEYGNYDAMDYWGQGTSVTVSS VL: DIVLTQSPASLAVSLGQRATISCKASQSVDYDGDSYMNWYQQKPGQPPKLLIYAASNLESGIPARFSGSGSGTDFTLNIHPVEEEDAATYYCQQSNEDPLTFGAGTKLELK" result=83%
binder="2B11 chimeric IgG4 mAb (antibody, V domains shown, Chimeric human IgG4 (S-to-P, L-to-E) with human CL, as m1; Often misprinted 2B111; also called Parental 2B11; 2B111) VH: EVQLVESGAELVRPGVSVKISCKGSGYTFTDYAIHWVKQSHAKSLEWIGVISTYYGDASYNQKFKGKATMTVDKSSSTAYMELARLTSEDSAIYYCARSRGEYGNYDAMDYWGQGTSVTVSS VL: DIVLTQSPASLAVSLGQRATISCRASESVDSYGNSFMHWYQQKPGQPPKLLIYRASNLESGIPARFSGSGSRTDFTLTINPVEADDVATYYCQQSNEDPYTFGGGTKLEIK" result=77%

Next item in the queue.
Ask: // % of WT binding lookup, key: 3E09 chimeric IgG4 mAb (antibody, V domains shown, Chimeric human IgG4 (S-to-P, L-to-E) with human CL, as m1; also called Parental 3E09) VH: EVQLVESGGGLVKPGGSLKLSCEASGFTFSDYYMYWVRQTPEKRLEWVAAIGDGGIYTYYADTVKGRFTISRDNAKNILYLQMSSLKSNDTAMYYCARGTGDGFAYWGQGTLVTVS VL: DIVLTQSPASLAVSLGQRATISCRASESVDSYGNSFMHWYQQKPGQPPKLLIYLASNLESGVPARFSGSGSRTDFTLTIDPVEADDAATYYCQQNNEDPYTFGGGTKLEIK
Result: 48%
